Values from patent US9926297B2

Recorded Emax for the following molecules
Target: human muscarinic M2 receptor (Homo sapiens, UniProt P08172)
Sequence (P08172 whole entry): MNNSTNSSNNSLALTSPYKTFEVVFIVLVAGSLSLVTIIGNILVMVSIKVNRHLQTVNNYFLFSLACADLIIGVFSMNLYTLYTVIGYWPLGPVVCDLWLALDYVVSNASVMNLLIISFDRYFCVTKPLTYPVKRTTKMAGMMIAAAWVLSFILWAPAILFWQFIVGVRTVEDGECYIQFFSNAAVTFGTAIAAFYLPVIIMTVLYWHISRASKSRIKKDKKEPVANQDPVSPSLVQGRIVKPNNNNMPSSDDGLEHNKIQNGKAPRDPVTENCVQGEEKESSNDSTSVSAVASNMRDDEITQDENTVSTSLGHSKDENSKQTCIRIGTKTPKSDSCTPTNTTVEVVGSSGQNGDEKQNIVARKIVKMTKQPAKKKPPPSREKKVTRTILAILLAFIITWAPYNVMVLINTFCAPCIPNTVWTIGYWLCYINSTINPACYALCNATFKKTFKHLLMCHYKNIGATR
Assay: Alphascreen Surefire phospho-ERK1/2 functional assay, M2
Conditions: CHO, read-out: % Emax cf. ACh, M2, CHO cells stably expressing human M2; relative to ACh
All answers are understood in %, so give the number only.

Here's what some known entries look like.
CCOC(=O)N1CCC2(CC(N3CCC(C4CCCN4C(C)=O)CC3)C2)C1 (single isomer, unassigned) [2-3 Isomer 2]; 14
CCOC(=O)N1CCC2(CC(N3CCC([C@@H]4CCCN4C(=O)OC4CCC4)CC3)C2)C1 (single isomer, unassigned) [2-43 Isomer 2]; 4
CCOC(=O)N1CCC2(CC(N3CCC(C4CCCNC4=O)CC3)C2)C1 (single isomer, unassigned) [4-1 Isomer 4]; 3
CCOC(=O)N1CCC2(CC(N3CCC([C@@H]4CCCN4C(=O)NC(C)C)CC3)C2)C1 (single isomer, unassigned) [2-25 Isomer 2]; 6
CCCn1nccc1C1CCN(C2CC3(CCN(C(=O)OCC)C3)C2)CC1 (single isomer, unassigned) [1-49 Isomer 2]; 21

Record CCOC(=O)N1CCC2(CC(N3CCC(N4CC(F)(F)C[C@@H]4C(=O)OC)CC3)C2)C1 (single isomer, unassigned) [2-87 Isomer 2] ; system human muscarinic M2 receptor (Homo sapiens, UniProt P08172); Emax = 54

###

Recorded Emax for the following molecules
Biological target: human muscarinic M4 receptor (Homo sapiens, UniProt P08173)
Construct: expressed in transfected cells
Sequence (P08173 1-479): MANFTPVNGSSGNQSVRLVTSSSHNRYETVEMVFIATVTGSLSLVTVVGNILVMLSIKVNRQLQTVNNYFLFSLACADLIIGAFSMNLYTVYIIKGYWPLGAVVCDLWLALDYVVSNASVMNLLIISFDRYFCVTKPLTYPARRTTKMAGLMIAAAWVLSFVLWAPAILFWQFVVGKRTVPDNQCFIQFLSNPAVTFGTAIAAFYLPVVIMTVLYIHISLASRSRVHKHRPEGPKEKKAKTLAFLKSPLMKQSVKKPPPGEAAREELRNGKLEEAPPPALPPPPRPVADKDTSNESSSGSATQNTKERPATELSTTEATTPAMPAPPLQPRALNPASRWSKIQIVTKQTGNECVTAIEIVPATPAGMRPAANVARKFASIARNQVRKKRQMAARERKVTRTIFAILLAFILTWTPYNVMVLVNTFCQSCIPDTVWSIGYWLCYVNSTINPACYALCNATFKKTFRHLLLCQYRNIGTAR
Test: Alphascreen Surefire phospho-ERK1/2 functional assay, M4
Format: cell-based
Conditions: CHO, read-out: % Emax cf. ACh, M4, CHO cells stably expressing human M4; relative to ACh
All answers are understood in %, so give the number only.

Here's what some known entries look like.
CCOC(=O)N1CCC2(CC(N3CCC([C@@H]4CCCN4C(=S)NC)CC3)C2)C1 (single isomer, unassigned) [2-75 Isomer 2]; 109
CCOC(=O)N1CCC2(CC(N3CCC([C@H]4CCCN4C(=O)NC)CC3)C2)C1 (single isomer, unassigned) [2-18 Isomer 2]; 56
CCNC(=O)N1CCCC1C1CCN(C2CC3(CCN(C(=O)OCC)C3)C2)CC1 (single isomer, unassigned) [2-19 Isomer 2]; 113
CCOC(=O)N1CCC2(CC(N3CCC([C@@H]4CCCN4C(=O)NC)CC3)C2)C1 (single isomer, unassigned) [2-17 Isomer 2]; 116
CCOC(=O)N1CCC2(CC(N3CCC([C@@H]4CCCN4C(=O)OCc4ccccn4)CC3)C2)C1 (single isomer, unassigned) [2-64 Isomer 2]; 41

We next turn to a different molecule, shown below.
# Emax (molecule: CCOC(=O)N1CCC2(CC(N3CCC(c4nccn4CCOC)CC3)C2)C1 (single isomer, unassigned) [1-51 Isomer 2] ) is 106

###

Target: human muscarinic M3 receptor (Homo sapiens)
Assay: Alphascreen Surefire phospho-ERK1/2 functional assay, M3
Settings: CHO, read-out: % Emax cf. ACh, M3, CHO cells stably expressing human M3; relative to ACh
measurement-name: Emax (%)
All answers are understood in %, so give the number only.

COC(=O)N1CCC2(CC(N3CCC(c4c(C)cnn4C)CC3)C2)C1 (single isomer, unassigned) [1-57 Isomer 2]; 7
CCCn1nccc1C1CCN(C2CC3(CCN(C(=O)OCC)C3)C2)CC1 (single isomer, unassigned) [1-49 Isomer 2]; 9
CCOC(=O)N1CCC2(CC(N3CCC(C4CCCN4C(=O)CC)CC3)C2)C1 (single isomer, unassigned) [2-6 Isomer 2]; 16

We next turn to a different compound, shown below.
# Emax (compound: CCOC(=O)N1CCC2(CC(N3CCC(C4CCCN(CC)C4=O)CC3)C2)C1 (single isomer, unassigned) [4-5 Isomer 2] ) is 9

###

Recorded % Emax cf. ACh, M3 for the following molecules
Molecular target: human muscarinic M3 receptor (Homo sapiens, UniProt P20309)
Sequence (P20309 whole entry): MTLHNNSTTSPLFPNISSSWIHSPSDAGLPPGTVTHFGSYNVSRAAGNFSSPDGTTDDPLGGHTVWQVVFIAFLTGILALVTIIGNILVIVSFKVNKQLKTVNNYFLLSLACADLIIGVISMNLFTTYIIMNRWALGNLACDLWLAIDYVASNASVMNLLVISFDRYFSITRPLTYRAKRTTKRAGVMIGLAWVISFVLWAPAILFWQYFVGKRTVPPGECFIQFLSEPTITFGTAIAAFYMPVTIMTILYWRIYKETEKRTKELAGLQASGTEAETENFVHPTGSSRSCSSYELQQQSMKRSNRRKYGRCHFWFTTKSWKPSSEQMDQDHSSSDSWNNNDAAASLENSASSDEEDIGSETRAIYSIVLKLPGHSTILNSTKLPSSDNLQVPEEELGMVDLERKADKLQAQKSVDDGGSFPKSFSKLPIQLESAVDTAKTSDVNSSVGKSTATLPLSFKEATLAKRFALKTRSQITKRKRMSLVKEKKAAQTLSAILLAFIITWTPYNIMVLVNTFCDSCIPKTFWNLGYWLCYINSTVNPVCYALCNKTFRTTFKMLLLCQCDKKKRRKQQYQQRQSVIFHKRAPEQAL
Experiment: Alphascreen Surefire phospho-ERK1/2 functional assay, M3
Details: CHO cells stably expressing human M3; relative to ACh
All answers are understood in %, so give the number only.

Here's what some known entries look like.
CCOC(=O)N1CCC2(CC(N3CCC([C@@H]4CCCN4C(=O)NCc4ccccn4)CC3)C2)C1 (single isomer, unassigned) [2-54 Isomer 1]; 0
CCOC(=O)N1CCC2(CC(N3CCC([C@@H]4CCCN4C(=O)NOC)CC3)C2)C1 (single isomer, unassigned) [2-33 Isomer 2]; 5
CCOC(=O)N1CCC2(CC(N3CCC([C@@H]4CCCN4C(=O)N(C)OC)CC3)C2)C1 (single isomer, unassigned) [2-34 Isomer 2]; 39

# % Emax cf. ACh, M3 (molecule: CCOC(=O)N1CCC2(CC(N3CCC(C4c5ccccc5CN4C(=O)NC)CC3)C2)C1 (single isomer, unassigned) [2-76 Isomer 1] ) is 35

# % Emax cf. ACh, M3 (molecule: CCOC(=O)N1CCC2(CC(N3CCC(n4cc(C)cn4)CC3)C2)C1 (single isomer, unassigned) [1-34 Isomer 2] ) is 0

# % Emax cf. ACh, M3 (molecule: CCOC(=O)N1CCC2(CC(N3CCC(C#N)(c4ccccn4)CC3)C2)C1 (single isomer, unassigned; isomer 2) [3-10 Isomer 2] ) is 0

###

Molecular target: human muscarinic M1 receptor (Homo sapiens, UniProt P11229)
Sequence (P11229 1-460): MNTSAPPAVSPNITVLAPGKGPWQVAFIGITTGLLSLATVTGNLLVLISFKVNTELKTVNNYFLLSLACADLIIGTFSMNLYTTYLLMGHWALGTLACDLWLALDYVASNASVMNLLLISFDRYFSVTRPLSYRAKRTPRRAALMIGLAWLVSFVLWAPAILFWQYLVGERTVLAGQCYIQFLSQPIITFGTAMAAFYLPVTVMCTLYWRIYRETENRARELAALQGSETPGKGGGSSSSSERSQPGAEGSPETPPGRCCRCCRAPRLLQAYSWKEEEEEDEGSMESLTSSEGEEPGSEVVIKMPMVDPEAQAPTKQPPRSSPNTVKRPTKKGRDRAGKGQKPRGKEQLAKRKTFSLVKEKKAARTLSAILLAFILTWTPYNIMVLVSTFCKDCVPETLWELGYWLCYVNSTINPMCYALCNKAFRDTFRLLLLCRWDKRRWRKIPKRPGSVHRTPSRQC
Assay: Alphascreen Surefire phospho-ERK1/2 functional assay, M1
Type: cell-based
Settings: CHO, read-out: % Emax cf. ACh, M1, CHO cells stably expressing human M1; relative to ACh
Classification scheme (Emax): class 1 = under 40%, class 2 = from 40% up to 80%, class 3 = 80% and over

CCOC(=O)N1CCC2(CC(N3CCC([C@@H]4CCCN4c4ccccn4)CC3)C2)C1 (single isomer, unassigned) [2-79 Isomer 2]; class 1
CCOC(=O)N1CCC2(CC(N3CCC(C4CC(C)CNC4=O)CC3)C2)C1 (single isomer, unassigned) [4-4 Isomer 2]; class 3
CCOC(=O)N1CCC2(CC(N3CCC([C@@H]4CCCN4C(=O)CO)CC3)C2)C1 (single isomer, unassigned) [2-52 Isomer 2]; class 2
COC(=O)N1CCC2(CC(N3CCC(c4nccn4C)CC3)C2)C1 (single isomer, unassigned) [1-6 Isomer 2]; class 3
CCOC(=O)N1CCC2(CC(N3CCC([C@@H]4CCCN4CC(F)(F)F)CC3)C2)C1 (single isomer, unassigned) [2-69 Isomer 2]; class 3

Hi, small favor: classify CCOC(=O)N1CCC2(CC(N3CCC(N4CC(F)(F)C[C@@H]4C)CC3)C2)C1 (single isomer, unassigned) [2-106 Isomer 2] by its Emax when you get a moment.
class 3

Hi, small favor: classify CCOC(=O)N1CCC2(CC(N3CCC(c4nnc(CC)[nH]4)CC3)C2)C1 (single isomer, unassigned) [1-27 Isomer 2] by its Emax when you get a moment.
class 1

###

Recorded Emax for the following molecules
Biological target: human muscarinic M1 receptor (Homo sapiens, UniProt P11229)
Sequence (P11229 1-460): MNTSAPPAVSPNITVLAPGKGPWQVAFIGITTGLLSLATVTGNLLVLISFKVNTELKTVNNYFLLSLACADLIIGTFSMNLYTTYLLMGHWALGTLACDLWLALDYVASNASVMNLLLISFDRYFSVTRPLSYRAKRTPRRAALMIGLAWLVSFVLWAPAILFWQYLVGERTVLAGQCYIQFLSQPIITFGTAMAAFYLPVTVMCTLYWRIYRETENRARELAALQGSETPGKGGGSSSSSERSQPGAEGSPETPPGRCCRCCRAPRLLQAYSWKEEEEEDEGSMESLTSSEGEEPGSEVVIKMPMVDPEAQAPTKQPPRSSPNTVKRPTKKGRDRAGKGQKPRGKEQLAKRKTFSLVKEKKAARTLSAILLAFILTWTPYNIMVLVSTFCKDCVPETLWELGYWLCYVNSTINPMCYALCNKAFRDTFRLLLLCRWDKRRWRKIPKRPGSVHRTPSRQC
Assay: Alphascreen Surefire phospho-ERK1/2 functional assay, M1
Assay type: cell-based
Settings: CHO, read-out: % Emax cf. ACh, M1, CHO cells stably expressing human M1; relative to ACh
All answers are understood in %, so give the number only.

Here's what some known entries look like.
CCOC(=O)N1CCC2(CC(N3CCC([C@@H]4CCCN4C(=O)NC4(C)COC4)CC3)C2)C1 (single isomer, unassigned) [2-36 Isomer 2]; 89
CCOC(=O)N1CCC2(CC(N3CCC([C@@H]4CCCN4C(=O)NC4CCC4)CC3)C2)C1 (single isomer, unassigned) [2-30 Isomer 2]; 34

We next turn to a different molecule, shown below.
Record CCOC(=O)N1CCC2(CC(N3CCC(c4nc(C(F)(F)F)c[nH]4)CC3)C2)C1 (single isomer, unassigned) [1-3 Isomer 2] ; system human muscarinic M1 receptor (Homo sapiens, UniProt P11229); Emax = 30
